- target of assay: p300 HAT domain (residues 1287-1666) (Homo sapiens (Human))
- Sequence (Q09472 1287-1666): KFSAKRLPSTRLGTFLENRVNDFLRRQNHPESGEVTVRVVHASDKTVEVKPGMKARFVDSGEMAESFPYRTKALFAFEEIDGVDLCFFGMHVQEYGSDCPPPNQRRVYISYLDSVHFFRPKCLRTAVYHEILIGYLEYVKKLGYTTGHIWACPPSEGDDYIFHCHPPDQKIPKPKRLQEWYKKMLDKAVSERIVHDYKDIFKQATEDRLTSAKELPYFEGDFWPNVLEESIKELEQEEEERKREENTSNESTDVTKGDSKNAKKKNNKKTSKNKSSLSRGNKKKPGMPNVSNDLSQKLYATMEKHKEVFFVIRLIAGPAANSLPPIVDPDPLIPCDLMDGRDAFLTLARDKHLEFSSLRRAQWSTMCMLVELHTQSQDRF
- experimental protocol: p300 HAT SPA assay (scintillation proximity assay, acetylation of biotinylated H3(1-21) peptide)
- Type: biochemical
- conditions: p300 HAT domain; average of at least 2 replicate titrations; read-out: P300 HAT SPA IC50
IC50 values, listed per item
Your answer should be a plain number; it is taken to be in µM.

[
  {
    "compound": "CC(CNC(C(=O)c1cnn2cc(-c3cnn(C)c3)ccc12)c1ccccc1)c1ccc(C#N)cc1 (single isomer, unassigned) [102 Isomer 1]",
    "target of assay": "p300 HAT domain (residues 1287-1666) (Homo sapiens (Human))",
    "units of measure": "µM",
    "IC50": 1.88
  },
  {
    "compound": "CCN(CC)C(=O)c1ccc2c(C(=O)C(NCCc3ccc(C#N)cc3)c3ccccc3)c[nH]c2c1 (single isomer, unassigned) [165 Isomer 1]",
    "target of assay": "p300 HAT domain (residues 1287-1666) (Homo sapiens (Human))",
    "units of measure": "µM",
    "IC50": 4.33
  },
  {
    "compound": "CNC(=O)Cn1cc(-c2ccc3c(C(=O)C(NCCc4ccc(Cl)cc4)c4ccccc4)c[nH]c3c2)cn1 (single isomer, unassigned) [87 Isomer 1]",
    "target of assay": "p300 HAT domain (residues 1287-1666) (Homo sapiens (Human))",
    "units of measure": "µM",
    "IC50": 1.39
  }
]

Exercise: What value of IC50 has been reported for the following compound? Cn1cc(CCNC(C(=O)c2c[nH]c3ccccc23)c2ccccc2)cn1 (single isomer, unassigned) [35 Isomer 2]
Solution: 43.5

* * *

- target of assay: p300 HAT domain (residues 1287-1666) (Homo sapiens (Human))
- experimental protocol: p300 HAT SPA assay (scintillation proximity assay, acetylation of biotinylated H3(1-21) peptide)
- Type: biochemical
- conditions: p300 HAT domain; average of at least 2 replicate titrations; read-out: P300 HAT SPA IC50
IC50 values, listed per item

Some solved entries appear below for comparison.
[
  {
    "compound": "NS(=O)(=O)c1ccc(CCNC(C(=O)c2c[nH]c3cccc(Cl)c23)c2ccccc2)cc1 (single isomer, unassigned) [12 Isomer 1]",
    "parameter": "IC50",
    "test value": "> 60 µM"
  },
  {
    "compound": "CC(Cc1ccc(C(N)=O)cc1)NC(C(=O)c1c[nH]c2ccccc12)c1ccccc1 (single isomer, unassigned) [140 Isomer 1]",
    "parameter": "IC50",
    "test value": "> 5 µM"
  },
  {
    "compound": "N#Cc1ccc(CCNC(C(=O)c2c[nH]c3cc(CC(=O)O)ccc23)c2ccccc2)cc1 (single isomer, unassigned) [160 Isomer 1]",
    "parameter": "IC50",
    "test value": "> 5 µM"
  },
  {
    "compound": "O=C(c1c[nH]c2ccccc12)C(NCCc1ccccc1Cl)c1ccccc1 (single isomer, unassigned) [3 Isomer 1]",
    "parameter": "IC50",
    "test value": "> 60 µM"
  },
  {
    "compound": "O=C(c1c[nH]c2ccccc12)C(NCCn1ccnc1)c1ccccc1 (single isomer, unassigned) [36 Isomer 2]",
    "parameter": "IC50",
    "test value": "> 60 µM"
  }
]

Exercise: What value of IC50 has been reported for the following compound? O=C(c1c[nH]c2cc(-c3ccccn3)ccc12)C(NCCc1ccc(F)cc1)c1ccccc1 (single isomer, unassigned) [105 Isomer 1]
Solution: > 30 µM
